Provide the recorded pIC50 for the entries that follow.
Molecular target: protein-protein interaction between Kras and SOS1 (biotin-tagged human Kras loaded with GDP, His-tagged human SOS1) (Homo sapiens (Human), UniProt P01116, G12D)
Assay: Protein-protein interaction inhibition between Kras and SOS1 (KrasG12D-SOS PPI) using AlphaScreen
Type: biochemical
Conditions: AlphaScreen; biotin-tagged human Kras loaded with GDP, His-tagged human SOS1; read-out: KRAS G12D-SOS PPI IC50
Bridge positions count the residues as written; N and C are the ends. Square brackets hold non-standard residues; d marks the D form. Peptide text beside a SMILES is read from it. * marks the point of attachment. hPhe(3-Cl-4-CF3) = N[C@@H](CCc1ccc(C(F)(F)F)c(Cl)c1)C(=O)O; NMePhe(4-I) = CN[C@@H](Cc1ccc(I)cc1)C(=O)O; NMeGly(cPent) = CN[C@H](C(=O)O)C1CCCC1; NMeChg = CN[C@H](C(=O)O)C1CCCCC1; NMeD = CN[C@@H](CC(=O)O)C(=O)O; NMeHpra = C#CCC[C@H](NC)C(=O)O; NMeL = CN[C@@H](CC(C)C)C(=O)O; d(β3hA) = C[C@@H](N)CC(=O)O; Morpholide = C1CN(*)CCO1; NMeA = CN[C@@H](C)C(=O)O; Ac5c = NC1(C(=O)O)CCCC1; Aze = O=C(O)[C@@H]1CCN1; Sar = CNCC(=O)O
Keep it numeric: pIC50 is minus log10 of the concentration in mol/L.

Ask: Form field: reported pIC50 of C#CCC[C@H]1C(=O)N[C@@H]([C@@H](C)CC)C(=O)N(C)[C@@H](C)C(=O)N2CC[C@H]2C(=O)N(C)[C@@H](Cc2ccc(I)cc2)C(=O)N(C)CC(=O)N[C@@H](CCc2ccc(C(F)(F)F)c(Cl)c2)C(=O)N2CCC[C@H]2C(=O)NC2(CCCC2)C(=O)N(C)[C@@H](C2CCCCC2)C(=O)N[C@H](C)CC(=O)N1C [Compound 971] (cyclo([Ac5c][NMeChg][d(β3hA)][NMeHpra]I[NMeA][Aze][NMePhe(4-I)][Sar][hPhe(3-Cl-4-CF3)]P))
Result: 7.80

Ask: Lookup CC[C@H](C)[C@@H]1NC(=O)[C@H](CC(C)C)N(C)C(=O)C[C@@H](C(=O)N2CCOCC2)N(C)C(=O)[C@H](C2CCCC2)N(C)C(=O)C2(CCCC2)NC(=O)[C@@H]2CCCN2C(=O)[C@H](CCc2ccc(C(F)(F)F)c(Cl)c2)NC(=O)CN(C)C(=O)[C@H](C2CCCC2)N(C)C(=O)[C@@H]2CCN2C(=O)[C@H](C)NC1=O [Compound 1309] ([NMeL]IA[Aze][NMeGly(cPent)][Sar][hPhe(3-Cl-4-CF3)]P[Ac5c][NMeGly(cPent)][NMeD]-Morpholide; lactam N-11)
Result: 9.07

---

Target: protein-protein interaction between Kras and SOS1 (biotin-tagged human Kras loaded with GDP, His-tagged human SOS1) (Homo sapiens (Human), UniProt P01116, G12D)
Assay: Protein-protein interaction inhibition between Kras and SOS1 (KrasG12D-SOS PPI) using AlphaScreen;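 note: kras produced in E. coli, Ni-coupled donor beads and streptavidin acceptor beads, excitation 680 nm with emission detected at 520–620 nm via singlet oxygen transfer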
Assay type: biochemical
Settings: AlphaScreen; biotin-tagged human Kras loaded with GDP, His-tagged human SOS1; read-out: KRAS G12D-SOS PPI IC50
Numbered stars: 1 amine (or outer) side, 2 acyl side, 3 side chain; on linkers, the order of the positions; unused ones are H or OH. Square brackets hold non-standard residues; d marks the D form. Peptide text beside a SMILES is read from it. hPhe(3-Cl-4-CF3) = N[C@@H](CCc1ccc(C(F)(F)F)c(Cl)c1)C(=O)O; X118 = O=C([C@H](CCc1c(F)cc(F)cc1F)N[*:1])[*:2]; NEtPhe(4-Me) = CCN[C@@H](Cc1ccc(C)cc1)C(=O)O; NMePhe(4-Cl) = CN[C@@H](Cc1ccc(Cl)cc1)C(=O)O; NMedβ3hAla = C[C@H](CC(=O)[*:2])N(C)[*:1]; Hyp = O=C(O)[C@@H]1C[C@@H](O)CN1; NMeChg = CN[C@H](C(=O)O)C1CCCCC1; NMeF = CN[C@@H](Cc1ccccc1)C(=O)O; NMeL = CN[C@@H](CC(C)C)C(=O)O; d(β3hA) = C[C@@H](N)CC(=O)O; NMeA = CN[C@@H](C)C(=O)O; Aze = O=C(O)[C@@H]1CCN1; Ac4c = NC1(C(=O)O)CCC1; Sar = CNCC(=O)O
measurement-kind: IC50 (nM)
Your answer should be a plain number; it is taken to be in nM.

Ask: Form field: reported IC50 of CC[C@H](C)[C@@H]1NC(=O)[C@H](C)N(C)C(=O)C[C@@H](C)NC(=O)[C@H](CC(C)C)N(C)C(=O)[C@H](Cc2ccccc2)N(C)C(=O)[C@H](CC(C)C)NC(=O)[C@H](CCc2c(F)cc(F)cc2F)NC(=O)CN(C)C(=O)[C@H](Cc2ccc(Cl)cc2)N(C)C(=O)CN(C)C(=O)CN(C)C1=O [Compound 2090] (cyclo(I[Sar][Sar][NMePhe(4-Cl)][Sar][X118]L[NMeF][NMeL][d(β3hA)][NMeA]))
Result: 380

Ask: Lookup CCO[C@@H]1C[C@H]2C(=O)NC3(CCC3)C(=O)N(C)[C@@H](C3CCCCC3)C(=O)N(C)[C@H](C)CC(=O)N(C)[C@@H](CC(C)C)C(=O)N[C@@H]([C@@H](C)CC)C(=O)N(C)[C@@H](C)C(=O)N3CC[C@H]3C(=O)N(CC)[C@@H](Cc3ccc(C)cc3)C(=O)N(C)CC(=O)N[C@@H](CCc3ccc(C(F)(F)F)c(Cl)c3)C(=O)N2C1 [Compound 928] (cyclo([Ac4c][NMeChg][NMedβ3hAla][NMeL]I[NMeA][Aze][NEtPhe(4-Me)][Sar][hPhe(3-Cl-4-CF3)][Hyp](Et)))
Result: 27

Cited source for all entries: patent US20240148821A1
